experiment: blockers of DNA damage checkpoint Chk1 activation – imaging, HeLa, hydroxyurea, phospho-Chk1 nuclear intensity, primary screen (AID 1187); conditions: hydroxyurea-induced phospho-Chk1 immunofluorescence imaging, higher = more signal; also: test concentration not given here
If the reported z-score equals or exceeds -0.3, assign MET. If not, assign NOT MET.

Below, 4 compounds whose answers are already recorded.
INSERT INTO measurements (compound, class_assignment) VALUES
  ('CCCCC(=C=CC[C@H](O)c1ccc(OCCO)cc1)CCO', 'NOT MET'),
  ('O=C1CS(=O)(=O)C(c2cccc([N+](=O)[O-])c2)N1c1ccccc1 (stereo not given)', 'MET'),
  ('COCC(=C=CC[C@H](O)c1ccc(OCCO)cc1)CCO', 'NOT MET'),
  ('CCOC(=O)C[C@H]1[C@H](OC(=O)Cc2ccc3c(c2)OCO3)[C@@H](NC(=O)c2ccc3ccccc3n2)c2cc(OCCCO)ccc2N1C(=O)c1ccccc1', 'MET');

We now examine a further compound.
Exam item: decide whether the reported z-score for O=C1OCCC/C=C\[C@H]2OC34C=CCN(c5ccc6ccccc6c5)C(=O)[C@H]3N(CCO)C(=O)[C@@H]4C12 (stereo not given in full) is at least -0.3.
MET

---

target: Fibroblast growth factor 2 (Homo sapiens) (UniProt P09038); experiment: basic fibroblast growth factor binding to printed compounds – biochemical, small-molecule microarray, 635/667 nm fluorescence, primary screen (AID 1133); conditions: FGF2, fluorescence 635/667, higher = more signal
Sequence (P09038 whole entry, looked up): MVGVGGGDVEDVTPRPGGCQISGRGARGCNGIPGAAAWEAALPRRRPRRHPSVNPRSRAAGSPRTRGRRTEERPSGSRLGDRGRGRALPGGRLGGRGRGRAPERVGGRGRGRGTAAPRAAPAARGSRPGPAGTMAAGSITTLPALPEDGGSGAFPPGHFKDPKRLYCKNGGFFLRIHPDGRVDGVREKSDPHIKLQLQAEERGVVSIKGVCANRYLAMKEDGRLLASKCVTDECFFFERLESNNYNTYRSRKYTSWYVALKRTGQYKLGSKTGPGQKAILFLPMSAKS
MEASUREMENT KIND: composite z-score
// return a plain number; no unit text

// known answers, use as guide
INSERT INTO results (molecule, reported) VALUES
  ('COc1cc2c(cc1O)C=[N+](Cc1sc3ccccc3c1Cl)CC2', 0.182),
  ('CCCCCCCCCC(O)C1C=CC2C(=O)N(c3ccccc3)C(=O)C2N1Nc1cc(OC)c(OC)c(OC)c1 (stereo not given)', -1.09),
  ('CN1C(=O)C2C=CC(C(O)c3cccn3C)N(Nc3ccc([N+](=O)[O-])cc3[N+](=O)[O-])C2C1=O (stereo not given)', 0.275),
  ('C=C(COC)C(=O)CC[C@@H](OC(C)=O)c1cccc(OCCO)c1', 1.48);

We now examine a further molecule.
Provide one value: measured composite z-score of C=C(C(=O)CC[C@H](OC(=O)c1ccccc1-c1ccccc1C(=O)O)c1cccc(OCCO)c1)C(C)C
0.85

---

system: Sam68 (KHDRBS1); assay: compounds binding KHDRBS1 protein – biochemical, small-molecule microarray, 635 nm fluorescence, primary screen (AID 1125); settings: higher = more signal;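 also: score merges 667 nm channel intensity with signal to noise over triplicate slides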
MEASUREMENT KIND: composite z-score
Answer with a number only.

Recorded results for 6 molecules are shown here.
INSERT INTO assay_data (molecule, reported) VALUES
  ('C=CC[C@@]1(C(=O)NCCCOC)N=C(c2ccc(OCCCO)cc2)O[C@@H]1c1ccccc1N=[N+]=[N-]', 1.01),
  ('COCC(=C=CC[C@H](O)c1ccccc1OCCO)C[C@H](O)c1ccccn1', 0.544),
  ('COC(=O)C1=CC(CCCO)=CC(c2cccs2)N(C)C=C1C(=O)OC (stereo unspecified)', -0.213),
  ('CN(C)C(=O)[C@@]1(Cc2ccccc2CN=[N+]=[N-])N=C(c2ccc(OCCCO)cc2)O[C@H]1c1ccccc1N=[N+]=[N-]', 1.21),
  ('CCOC(=O)C[C@H]1[C@H](OC(=O)c2cc3ccccc3oc2=O)[C@@H](NC(=O)c2ccccc2)c2cc(OCCCO)ccc2N1C(=O)c1ccccc1', 0.64),
  ('C=C[C@H]1C(C(=O)OCC)=CC[C@@H](c2ccccc2)N1S(=O)(=O)c1ccc(C)cc1', 1.1);

Fetch value of composite z-score on Sam68 (KHDRBS1) for Cc1ccc(S[C@]2(C(=O)NCC(F)(F)F)CC(=O)N(Cc3cc(C(F)(F)F)cc(C(F)(F)F)c3)[C@@H]2c2ccc(CO)cc2)cc1 .
-0.36
